Test: in vitro
Format: in vitro ADME, human
Details: human, plasma
readout-type: half-life at 5 μM

Query: half-life at 5 μM; subject: N#C/C=C/c1ccc2c(S(=O)(=O)n3nc(Nc4ccc(C#N)c(Cl)c4)nc3N)cccc2c1 > 6.21 h

###

Assay: In vivo pharmacokinetics, plasma and brain
Design: species or system Balb/C male mice
Conditions: male, Balb/C, mouse, plasma, po, 250 mg/kg, plasma, 250 mg/kg intragastric, mice group 2
readout-type: half-life (h)
Just the number in h, nothing appended.

Recorded half-life of Nc1nc(Nc2ccc(Cl)cc2)nn1S(=O)(=O)c1ccc2ccccc2c1 , please. 5

###

Target: CYP2D6 (Homo sapiens, UniProt P10635)
Sequence (P10635 whole entry): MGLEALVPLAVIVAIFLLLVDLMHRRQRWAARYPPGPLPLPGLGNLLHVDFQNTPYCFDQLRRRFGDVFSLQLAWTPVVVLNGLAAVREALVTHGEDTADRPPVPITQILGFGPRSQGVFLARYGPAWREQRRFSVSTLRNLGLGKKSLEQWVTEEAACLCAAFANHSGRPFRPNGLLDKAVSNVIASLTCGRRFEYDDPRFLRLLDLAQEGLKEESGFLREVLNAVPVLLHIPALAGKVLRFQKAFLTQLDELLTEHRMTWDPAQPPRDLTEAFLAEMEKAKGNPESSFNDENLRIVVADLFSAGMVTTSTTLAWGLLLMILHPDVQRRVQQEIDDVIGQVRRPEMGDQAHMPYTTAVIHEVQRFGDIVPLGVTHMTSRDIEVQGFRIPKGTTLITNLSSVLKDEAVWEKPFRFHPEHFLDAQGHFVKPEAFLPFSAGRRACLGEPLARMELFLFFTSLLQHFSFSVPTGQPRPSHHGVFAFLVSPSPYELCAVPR
Experiment: Human CYP inhibition in human liver microsomes
Type: in vitro ADME
Conditions: human liver microsomes, substrate dextromethorphan; read-out: CYP inhibition IC50, 2D6
readout-type: IC50

Which IC50 reading was recorded for the compound N#C/C=C/c1ccc2c(S(=O)(=O)n3nc(Nc4ccc(C#N)c(Cl)c4)nc3N)cccc2c1 [Compound 20] ? > 50 µM

###

Some compounds, each annotated with its measured IC50.
Tested on: HIV-1 IIIB (wild-type)
Experiment: HIV inhibition assay in TZM-bl cells, wild-type
Format: cell-based
Details: Human immunodeficiency virus 1, IIIB, Table 3, TZM-bl, ± SEM, minimum 6 replicates, read-out: IC50 (TZM, WT)
Numbers only; they are read as nM.

- C=CC(=O)Nc1cc(C)c(S(=O)(=O)n2nc(Nc3ccc(Cl)cc3)nc2N)c(C)c1 [Compound 26]: 5.78
- N#Cc1ccc2c(S(=O)(=O)n3nc(Nc4c(Cl)cc(Cl)cc4Cl)nc3N)cccc2c1 [Compound 42]: 28.1
- CN(C)c1cccc2c(S(=O)(=O)n3nc(Nc4ccc(Cl)cc4)nc3N)cccc12 [Compound 23]: 10.3

Fill in: IC50 of Cc1nc(-c2ccc(S(=O)(=O)n3nc(Nc4ccc(C#N)cc4)nc3N)s2)cs1 [Compound 52] is ___ 2.14

I am curious: what IC50 value has been reported for N#Cc1ccc2c(S(=O)(=O)n3nc(Nc4ccc(C#N)c(Cl)c4)nc3N)cccc2c1 [Compound 5] ? 0.42

Query: IC50; subject: N#Cc1ccc(Nc2nc(N)n(S(=O)(=O)c3cccc4cc(C#N)ccc34)n2)cc1 [Compound 2] 1.11

###

Assay: In vivo pharmacokinetics, plasma and brain
Design: species or system Balb/C male mice
Conditions: male, Balb/C, mouse, plasma, po, 250 mg/kg, plasma, 250 mg/kg intragastric, mice group 1; read-out: AUC0-7
Method: The pharmacokinetics of compound 1 was studied in white Balb/C male mice. 22 animals with an average body weight of 20 g were selected for the study. Before the study, the animals were kept on a standard vivarium ration with dry pelleted feed. All the test animals had free access to water but were deprived of food for 1 hour before administration of the compound. This regimen was continued for another hour after the administration. […]
readout-type: AUC(0-t)
Entry format: amount then unit.

What value of AUC(0-t) has been reported for the following molecule? Nc1nc(Nc2ccc(Cl)cc2)nn1S(=O)(=O)c1ccc2ccccc2c1 3710 ng·h/mL

###

Experiment: in vitro
Format: in vitro ADME, mouse
Conditions: mouse, plasma, pH 7.4; 5 μM, dialysis 5 hours; read-out: Mouse plasma protein binding
readout-type: fraction unbound

Need fraction unbound, item N#C/C=C/c1ccc2c(S(=O)(=O)n3nc(Nc4ccc(C#N)c(Cl)c4)nc3N)cccc2c1 < 0.001
